assay: chemical genetic growth profiling, strain panel (AID 1159580);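 note: tested at 20 µM; growth read once vehicle control cultures reached saturation at 30 °C; 1 = growth at the plate median or of vehicle wells; lower values mean less growth of the strain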; conditions: S. cerevisiae deletion strains, growth OD, locus YGR078C, strain PAC10, active compounds read low
Out of some 5,500 compounds screened, about 2,000 (36%) were called active. Another 18% or so got no clear call; they are omitted. Some of the results follow.
molecules and their reported normalized growth

Sample answers from the record:
CC(=O)O[C@@H]1C=C[C@@]2(C)C(C[C@@H](OC(C)=O)[C@@]3(C)C4=CC(=O)O[C@@H](c5ccoc5)[C@]4(C)CCC23)C1(C)C (stereo partly drawn)	1.02 (inactive)
COc1c(C)c2c(c(C)c1Cl)Oc1c(Cl)c(OC)c(Cl)c(C)c1C(=O)O2	1.01 (inactive)
CN(C)C1C(=O)C(C(N)=O)=C(O)C2(O)C(=O)C3=C(O)c4c(O)ccc(Cl)c4C(C)(O)C3CC12 (stereo not drawn)	1.02 (inactive)

Task item: Can you share its normalized growth? I mean this molecule: CCc1cccc(N(C)C(N)=Nc2cccc3ccccc23)c1
Reply: 0.97 (inactive)

Task item: Moving on to the next molecule: NC(=O)c1ccccc1
Reply: 0.997 (inactive)

Task item: Moving on to the next molecule: O=C(O)C1C2CCC1C(O)C2 (stereo not drawn)
Reply: 0.998 (inactive)

Task item: Moving on to the next molecule: CC(=O)O[C@H]1CC[C@@]2(C)C(C[C@@H](OC(C)=O)[C@@]3(C)C4=CC(=O)O[C@@H](c5ccoc5)[C@]4(C)CCC23)C1(C)C (stereo partly drawn)
Reply: 0.988 (inactive)

Task item: Moving on to the next molecule: OCc1ccccc1-c1ccccc1
Reply: 0.985 (inactive)

Task item: Moving on to the next molecule: CCCN(CCC)S(=O)(=O)c1ccc(C(=O)O)cc1
Reply: 0.967 (inactive)

Task item: Moving on to the next molecule: COC(=O)c1c(OC)cc2c(c1C)Oc1c(Cl)c(O)c(Cl)c(C)c1C(=O)O2
Reply: 0.886 (inactive)
